Reference for the values: patent EP4806903A1

- test: Saturation solubility in PBS
- Type: physicochemical
- condition-set: aqueous buffer, PBS pH 7.4, 37°C, calculated based on DOX
readout-name: solubility at 24 h (µg/mL)
Report the figure in µg/mL without appending any unit label.

For the molecule COc1cccc2c1C(=O)c1c(O)c3c(c(O)c1C2=O)C[C@@](O)(C(=O)CO)C[C@@H]3O[C@H]1C[C@H](N)[C@H](O)[C@H](C)O1 [DOX, doxorubicin] , give its reported solubility at 24 h. 220
